# Tested on: PC-3
# assaySummary: Antiproliferative activity against human PC3 cells after 3 days by sulforhodamine B assay
# Format: functional
# testConditions: PC-3, 72 h, read-out: ED50 (the source's name)
What pEC50 was measured for each of the following?
The scale used: pEC50 is minus the common logarithm of the concentration in molar units.

# pEC50 (compound: CCCC1=C(OC)C(CCC)(CCC)C(=O)/C(=C(O)\C=C\c2ccc(Br)cc2)C1=O ) is 5.33

# pEC50 (compound: CCCC1=C(OC)C(CCC)(CCC)C(=O)/C(=C(O)\C=C\c2ccc(I)cc2)C1=O ) is 5.55

# pEC50 (compound: COC1=C(C)C(O)=C(C(=O)/C=C/c2ccccc2)C(=O)C1(C)C [DESMOSDUMOTIN C] ) is 4.45

# pEC50 (compound: CCCC1=C(OCCC(C)C)C(CCC)(CCC)C(=O)/C(=C(O)\C=C\c2ccccc2)C1=O ) is 4.77

# pEC50 (compound: COC1=C(CC=C(C)C)C(=O)/C(=C(O)/C=C/c2ccccc2)C(=O)C1(CC=C(C)C)CC=C(C)C [3,3,5-TRIPRENYLDESMOSDUMOTIN C] ) is 4.91

# pEC50 (compound: CCCC1=C(OC)C(CCC)(CCC)C(=O)/C(=C(O)\C=C\c2ccccc2)C1=O ) is 5.09

# pEC50 (compound: CCCC1=C(OCC(C)C)C(CCC)(CCC)C(=O)/C(=C(O)\C=C\c2ccccc2)C1=O ) is 4.91

# pEC50 (compound: COC1=C(CC(C)C)C(=O)/C(=C(O)/C=C/c2ccccc2)C(=O)C1(CC(C)C)CC(C)C ) is 4.91

###

# assaySummary: Antiproliferative activity against human CL1-5 cells
# Format: functional
# testConditions: read-out: ED50 (the source's name)
measuredMetric: pEC50
The scale used: pEC50 is minus the common logarithm of the concentration in molar units.

# pEC50 (compound: CCCC1=C(OC)C(CCC)(CCC)C(=O)/C(=C(O)\C=C\c2ccc(Br)cc2)C1=O ) is 6.96

###

# System: KB
# assaySummary: Antiproliferative activity against human KB cells after 3 days by sulforhodamine B assay
# Format: functional
# testConditions: 72 h, read-out: ED50 (the source's name)
measuredMetric: pEC50
The scale used: pEC50 is minus the common logarithm of the concentration in molar units.

# pEC50 (compound: CCCC1=C(OCC(C)C)C(CCC)(CCC)C(=O)/C(=C(O)\C=C\c2ccccc2)C1=O ) is 5.32

# pEC50 (compound: CC(=O)O[C@H]1C(=O)[C@@]2(C)[C@H]([C@H](OC(=O)c3ccccc3)[C@]3(O)C[C@H](OC(=O)[C@H](O)[C@@H](NC(=O)c4ccccc4)c4ccccc4)C(C)=C1C3(C)C)[C@]1(OC(C)=O)CO[C@@H]1C[C@@H]2O ) is 8.54

# pEC50 (compound: CCCC1=C(OCCC(C)C)C(CCC)(CCC)C(=O)/C(=C(O)\C=C\c2ccccc2)C1=O ) is 4.97

# pEC50 (compound: CCCC1=C(OC)C(CCC)(CCC)C(=O)/C(=C(O)\C=C\c2ccc(Br)cc2)C1=O ) is 5.74

# pEC50 (compound: COC1=C(C)C(O)=C(C(=O)/C=C/c2ccccc2)C(=O)C1(C)C ) is 4.89
